Species: Rattus norvegicus
Assay Text: Compound was evaluated for its antagonist activity and inhibition of forskolin-stimulated cAMP formation by L-AP4 (10 uM), in adult rat cortical slices
Assay type: functional
Measured Property: pIC50
Scale: negative log10 of molar concentration, which is what pIC50 denotes.

Sample `C[C@](N)(Cc1cccc(C(=O)O)c1)C(=O)O` — what was its pIC50?
6.00

Values were extracted from ChEMBL document CHEMBL1131548.
